# methodDescription: Half life in rat at 5 mg/kg, iv
# Type: ADME, organism-based
# testContext: in vivo
testReadout: half-life
Note: state the figure and append the unit.

Task: Value lookup for half-life; key = COc1cc2/c(=N/c3ccc(Br)cc3F)nc[nH]c2cc1OCC1CCN(C)CC1 [VANDETANIB]
Output: 8.3 h

---

# assayedSystem: Vascular endothelial growth factor receptor 1 (Homo sapiens, UniProt P17948)
# Sequence (P17948 whole entry): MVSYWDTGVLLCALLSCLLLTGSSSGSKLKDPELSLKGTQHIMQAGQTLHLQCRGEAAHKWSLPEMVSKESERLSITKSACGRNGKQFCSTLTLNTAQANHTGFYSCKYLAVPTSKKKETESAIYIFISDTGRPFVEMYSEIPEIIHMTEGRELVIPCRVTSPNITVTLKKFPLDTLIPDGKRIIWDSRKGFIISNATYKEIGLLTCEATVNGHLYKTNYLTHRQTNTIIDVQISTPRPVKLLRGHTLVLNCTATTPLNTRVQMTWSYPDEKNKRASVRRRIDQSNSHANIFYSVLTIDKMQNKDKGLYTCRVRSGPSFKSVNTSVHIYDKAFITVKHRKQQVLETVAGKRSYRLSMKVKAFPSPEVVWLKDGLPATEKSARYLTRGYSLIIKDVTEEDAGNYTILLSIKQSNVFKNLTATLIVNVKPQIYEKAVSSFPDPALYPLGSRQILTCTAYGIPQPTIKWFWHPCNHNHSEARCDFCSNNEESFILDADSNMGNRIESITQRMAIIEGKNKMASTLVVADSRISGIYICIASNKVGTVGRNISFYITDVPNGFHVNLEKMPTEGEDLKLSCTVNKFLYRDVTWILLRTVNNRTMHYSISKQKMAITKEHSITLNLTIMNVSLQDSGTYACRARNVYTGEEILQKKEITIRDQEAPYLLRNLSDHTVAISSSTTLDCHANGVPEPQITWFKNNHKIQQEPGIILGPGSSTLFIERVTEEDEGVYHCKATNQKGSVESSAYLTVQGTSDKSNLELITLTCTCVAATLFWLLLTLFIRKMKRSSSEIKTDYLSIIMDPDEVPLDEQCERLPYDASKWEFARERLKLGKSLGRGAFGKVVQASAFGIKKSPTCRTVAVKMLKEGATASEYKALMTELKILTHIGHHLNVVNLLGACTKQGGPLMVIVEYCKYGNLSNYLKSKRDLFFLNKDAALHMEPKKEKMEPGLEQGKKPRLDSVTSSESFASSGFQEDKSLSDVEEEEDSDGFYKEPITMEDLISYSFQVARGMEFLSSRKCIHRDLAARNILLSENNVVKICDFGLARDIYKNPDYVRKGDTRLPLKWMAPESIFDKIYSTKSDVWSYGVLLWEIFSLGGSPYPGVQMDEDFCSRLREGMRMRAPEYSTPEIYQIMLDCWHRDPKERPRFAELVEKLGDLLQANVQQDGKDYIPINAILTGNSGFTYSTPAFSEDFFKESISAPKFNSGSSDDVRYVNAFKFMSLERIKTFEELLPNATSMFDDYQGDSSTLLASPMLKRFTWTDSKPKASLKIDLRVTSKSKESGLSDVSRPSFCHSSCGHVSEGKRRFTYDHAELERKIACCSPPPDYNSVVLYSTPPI
# methodDescription: Inhibition of VEGFR1 (unknown origin) by FRET based Z-LYTE kinase assay
testReadout: IC50 (nM)
A number alone suffices; assume nM.

Task: Value lookup for IC50; key = "CNC(=O)c1nc(Nc2ccc(NC(=O)Nc3cccc(C)c3)cc2)c2ccccc2n1"
Output: 12.1

---

# assayedSystem: UniProt P00533
# Sequence (P00533 whole entry): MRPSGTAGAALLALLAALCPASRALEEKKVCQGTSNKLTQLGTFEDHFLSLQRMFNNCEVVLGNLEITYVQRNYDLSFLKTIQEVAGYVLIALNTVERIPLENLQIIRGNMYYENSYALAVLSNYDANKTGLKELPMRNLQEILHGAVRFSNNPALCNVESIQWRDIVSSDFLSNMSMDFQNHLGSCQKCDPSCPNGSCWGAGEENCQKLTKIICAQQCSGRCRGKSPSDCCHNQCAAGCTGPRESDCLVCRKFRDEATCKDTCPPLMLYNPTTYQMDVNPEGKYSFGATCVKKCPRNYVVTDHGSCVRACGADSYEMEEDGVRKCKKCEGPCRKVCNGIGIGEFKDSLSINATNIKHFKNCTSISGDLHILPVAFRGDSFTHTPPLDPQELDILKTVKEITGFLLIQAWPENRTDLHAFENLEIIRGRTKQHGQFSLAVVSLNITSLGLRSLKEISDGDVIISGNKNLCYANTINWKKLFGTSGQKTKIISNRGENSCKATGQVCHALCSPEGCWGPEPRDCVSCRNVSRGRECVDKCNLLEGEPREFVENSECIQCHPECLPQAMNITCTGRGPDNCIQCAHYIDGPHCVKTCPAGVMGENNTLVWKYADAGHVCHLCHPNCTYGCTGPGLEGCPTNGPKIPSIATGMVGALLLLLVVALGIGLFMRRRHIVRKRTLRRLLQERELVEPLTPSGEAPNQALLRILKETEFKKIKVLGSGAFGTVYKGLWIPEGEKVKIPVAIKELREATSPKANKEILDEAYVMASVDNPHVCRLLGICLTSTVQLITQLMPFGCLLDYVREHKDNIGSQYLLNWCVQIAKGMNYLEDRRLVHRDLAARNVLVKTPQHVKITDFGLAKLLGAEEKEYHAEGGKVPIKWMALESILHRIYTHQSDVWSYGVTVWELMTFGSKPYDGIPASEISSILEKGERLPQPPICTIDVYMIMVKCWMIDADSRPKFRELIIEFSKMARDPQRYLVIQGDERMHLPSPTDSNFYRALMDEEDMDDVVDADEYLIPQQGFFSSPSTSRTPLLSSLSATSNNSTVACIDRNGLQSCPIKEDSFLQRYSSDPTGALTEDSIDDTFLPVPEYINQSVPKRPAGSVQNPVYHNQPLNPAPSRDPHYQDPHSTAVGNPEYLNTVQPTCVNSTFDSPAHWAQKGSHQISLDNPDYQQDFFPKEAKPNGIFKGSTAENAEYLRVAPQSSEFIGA
# methodDescription: Inhibition of human recombinant EGFR using poly(Glu-Tyr) as substrate at 4:1 ratio in presence of ATP incubated for 60 mins by ELISA analysis
testReadout: pIC50
pIC50 here: minus log base 10 of the concentration, concentration in moles per litre.

Task: Value lookup for pIC50; key = "NC(=O)CCn1cc(-c2ccc3ncnc(Nc4cc(O)c(F)cc4F)c3c2)nn1"
Output: 7.14

---

# assayedSystem: UniProt P54760
# Sequence (P54760 whole entry): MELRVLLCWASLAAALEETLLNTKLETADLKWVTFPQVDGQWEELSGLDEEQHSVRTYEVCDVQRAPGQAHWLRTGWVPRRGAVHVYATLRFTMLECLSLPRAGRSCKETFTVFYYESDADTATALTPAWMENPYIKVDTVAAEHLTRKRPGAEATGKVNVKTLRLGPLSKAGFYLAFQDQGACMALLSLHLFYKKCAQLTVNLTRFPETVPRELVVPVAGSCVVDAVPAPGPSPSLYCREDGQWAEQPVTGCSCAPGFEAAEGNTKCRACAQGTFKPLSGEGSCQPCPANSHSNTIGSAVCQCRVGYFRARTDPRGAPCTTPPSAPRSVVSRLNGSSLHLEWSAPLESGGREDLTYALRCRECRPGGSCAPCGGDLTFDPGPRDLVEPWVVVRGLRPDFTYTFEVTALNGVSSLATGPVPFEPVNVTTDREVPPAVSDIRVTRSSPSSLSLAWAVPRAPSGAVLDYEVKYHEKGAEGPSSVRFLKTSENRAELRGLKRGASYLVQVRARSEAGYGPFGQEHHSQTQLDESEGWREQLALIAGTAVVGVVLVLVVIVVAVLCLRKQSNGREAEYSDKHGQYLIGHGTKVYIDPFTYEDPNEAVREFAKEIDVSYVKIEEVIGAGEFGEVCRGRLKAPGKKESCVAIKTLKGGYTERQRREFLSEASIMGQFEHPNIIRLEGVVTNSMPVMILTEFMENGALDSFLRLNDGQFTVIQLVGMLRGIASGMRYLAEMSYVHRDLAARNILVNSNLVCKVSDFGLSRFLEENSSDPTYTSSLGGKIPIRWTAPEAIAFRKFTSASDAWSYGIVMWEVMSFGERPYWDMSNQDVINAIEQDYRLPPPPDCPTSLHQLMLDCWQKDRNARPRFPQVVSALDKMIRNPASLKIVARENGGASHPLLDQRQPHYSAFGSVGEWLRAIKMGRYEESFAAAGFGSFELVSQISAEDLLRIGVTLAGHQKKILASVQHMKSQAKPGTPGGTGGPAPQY
testReadout: pIC50
pIC50 here: minus log base 10 of the concentration, concentration in moles per litre.

Task: Value lookup for pIC50; key = "O=C(Nc1ccc(-c2ccc3c(=O)[nH]cnc3c2)cc1)Nc1ccc(F)c(F)c1"
Output: 5.49

---

Quick list: pIC50 per entry.
# assayedSystem: Vascular endothelial growth factor receptor 1 (Homo sapiens)
# methodDescription: Inhibition of VEGFR-1 (unknown origin)
pIC50 here: minus log base 10 of the concentration, concentration in moles per litre.

>  <compoundStructure>
COc1cc2ncnc(Nc3ccsc3C(=O)Nc3ccc(F)c(Cl)c3)c2cc1OC

>  <assayedSystem>
Vascular endothelial growth factor receptor 1 (Homo sapiens)

>  <pIC50>
6.96

$$$$

# next compound below
Task: Provide the documented pIC50 with Vascular endothelial growth factor receptor 1 (Homo sapiens) as the system for "CCCNC(=O)Nc1ccc(Nc2ncnc3cc(OC)c(OC)cc23)cc1Cl"
Output: 6.77

---

# methodDescription: in vitro
# testContext: human, HUVEC cells
testReadout: EC50

Task: Value lookup for EC50; key = "COc1cc2/c(=N/c3ccc(Br)cc3F)nc[nH]c2cc1OCC1CCN(C)CC1"
Output: > 3000 nM

---

# assayedSystem: Platelet-derived growth factor receptor beta (Homo sapiens, UniProt P09619)
# methodDescription: Inhibition of human recombinant PDGFRbeta using poly (Glu, Tyr)4:1 as substrate measured after 60 mins by ELISA
testReadout: pIC50
pIC50 here: minus log base 10 of the concentration, concentration in moles per litre.

Task: Value lookup for pIC50; key = "O=C(Nc1ccc(-c2ccc3c(=O)[nH]cnc3c2)cc1)Nc1ccc(F)c(F)c1"
Output: 4.01

---

# Test system: MCF7
# methodDescription: cells
# testContext: Homo sapiens, MCF7, 48 h
Quick list: IC50 per entry.
A number alone suffices; assume µM.

Look over these answered cases.
>  <molecule>
COc1cc2ncnc(Oc3cccc(NC(=S)Nc4ccc(Cl)c(C(F)(F)F)c4)c3)c2cc1OC

>  <IC50, µM>
17.7

$$$$
>  <molecule>
CNC(=O)c1cc(Oc2ccc(NC(=O)Nc3ccc(Cl)c(C(F)(F)F)c3)cc2)ccn1 [SORAFENIB]

>  <IC50, µM>
17.9

$$$$

Task: Value lookup for IC50; key = "COc1cc2ncnc(Oc3cccc(NC(=S)Nc4ccc(Br)c(C(F)(F)F)c4)c3)c2cc1OC"
Output: 15.7

---

In what follows, each item is paired with its IC50 for Vascular endothelial growth factor receptor 2 (Homo sapiens).
Note: state the figure and append the unit.

>  <compoundStructure>
COc1cccc(CNC(=O)CSc2nc3ccccc3c(=O)n2-c2ccc(S(N)(=O)=O)cc2)c1OC

>  <experimentalResult>
247 nM

$$$$

# next molecule below
Task: Provide the documented IC50 with Vascular endothelial growth factor receptor 2 (Homo sapiens) as the system for "O=C(Cn1c(=O)c2ccccc2n(Cc2ccccc2)c1=O)Nc1ccc(C(=O)N/N=C/c2ccc(Cl)cc2)cc1"
Sequence (P35968 whole entry): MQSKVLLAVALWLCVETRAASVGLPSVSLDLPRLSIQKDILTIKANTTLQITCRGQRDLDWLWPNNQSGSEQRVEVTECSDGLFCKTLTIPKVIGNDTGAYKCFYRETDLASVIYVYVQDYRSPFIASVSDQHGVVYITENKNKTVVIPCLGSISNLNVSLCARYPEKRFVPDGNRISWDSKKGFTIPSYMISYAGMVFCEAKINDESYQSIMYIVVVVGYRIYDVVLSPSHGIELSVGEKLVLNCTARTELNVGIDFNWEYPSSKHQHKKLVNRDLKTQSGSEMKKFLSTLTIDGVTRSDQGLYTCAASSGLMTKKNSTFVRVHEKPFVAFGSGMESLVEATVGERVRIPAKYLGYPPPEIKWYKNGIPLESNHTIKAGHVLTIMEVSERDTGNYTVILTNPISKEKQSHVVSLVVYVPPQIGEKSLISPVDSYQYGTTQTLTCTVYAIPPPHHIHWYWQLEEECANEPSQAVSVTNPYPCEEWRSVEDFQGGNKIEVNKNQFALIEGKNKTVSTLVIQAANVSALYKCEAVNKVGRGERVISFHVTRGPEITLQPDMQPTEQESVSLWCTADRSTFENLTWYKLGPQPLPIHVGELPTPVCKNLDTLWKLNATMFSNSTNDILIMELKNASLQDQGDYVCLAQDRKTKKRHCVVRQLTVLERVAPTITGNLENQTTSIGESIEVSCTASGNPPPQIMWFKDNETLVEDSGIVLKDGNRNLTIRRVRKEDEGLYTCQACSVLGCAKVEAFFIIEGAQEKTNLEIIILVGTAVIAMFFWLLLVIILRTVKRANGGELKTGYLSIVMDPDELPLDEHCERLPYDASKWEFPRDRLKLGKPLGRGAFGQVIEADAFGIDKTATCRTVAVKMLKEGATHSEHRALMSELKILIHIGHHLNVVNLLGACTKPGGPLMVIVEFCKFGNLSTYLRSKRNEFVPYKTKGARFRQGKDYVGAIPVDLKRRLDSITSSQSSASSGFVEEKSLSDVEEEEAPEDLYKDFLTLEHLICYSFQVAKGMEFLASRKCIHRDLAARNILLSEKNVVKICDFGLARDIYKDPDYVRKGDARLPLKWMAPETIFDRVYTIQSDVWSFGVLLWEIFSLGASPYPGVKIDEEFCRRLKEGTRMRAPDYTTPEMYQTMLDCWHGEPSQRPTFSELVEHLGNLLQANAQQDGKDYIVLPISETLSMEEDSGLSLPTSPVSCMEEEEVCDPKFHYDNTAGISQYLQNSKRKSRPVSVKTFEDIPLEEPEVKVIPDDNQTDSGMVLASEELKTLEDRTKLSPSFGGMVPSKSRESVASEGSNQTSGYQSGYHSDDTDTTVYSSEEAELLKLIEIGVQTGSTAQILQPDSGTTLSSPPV
Output: 120 nM

---

# assayedSystem: Vascular endothelial growth factor receptor 2 (Homo sapiens)
# methodDescription: Inhibition of N-terminal polyhistidine human recombinant KDR using poly-(Glu4-Tyr) peptide as substrate incubated for 60 mins by DELFIA/time-resolved fluorometric analysis
testReadout: pIC50
pIC50 here: minus log base 10 of the concentration, concentration in moles per litre.

Task: Provide the documented pIC50 with Vascular endothelial growth factor receptor 2 (Homo sapiens) as the system for "O=[N+]([O-])c1ccc(COc2ncnc3ccc([N+](=O)[O-])cc23)cc1"
Output: 8.33

---

# System: MCF7
# methodDescription: Cytotoxicity against human MCF7 cells assessed as reduction in cell growth incubated for 24 hrs by MTT assay
# Assay type: functional, cell-based
# testContext: MCF7, 24 h
testReadout: IC50
Note: state the figure and append the unit.

Task: Value lookup for IC50; key = "NS(=O)(=O)c1ccc(-n2c(SCC(=O)N/N=C/c3ccc(Cl)cc3Cl)nc3cc4ccccc4cc3c2=O)cc1"
Output: 100 nM

---

# Test system: HCT-116
# methodDescription: Cytotoxicity against human HCT-116 cells assessed as cell growth inhibition
# Format: functional, cell-based
Quick list: IC50 per entry.
Note: state the figure and append the unit.

>  <compoundStructure>
CNC(=O)c1cc(Oc2ccc(NC(=O)Nc3ccc(Cl)c(C(F)(F)F)c3)cc2)ccn1

>  <assayedSystem>
HCT-116

>  <IC50>
6.82 µM

$$$$

# next compound below
Task: Value lookup for IC50; key = "Cc1ccc2nc(-c3cccnc3)nc(NNC(=S)NC3CCCCC3)c2c1"
Output: 3.37 µM

---

# assayedSystem: Serine/threonine-protein kinase B-raf (Homo sapiens, UniProt P15056)
# Sequence (P15056 whole entry): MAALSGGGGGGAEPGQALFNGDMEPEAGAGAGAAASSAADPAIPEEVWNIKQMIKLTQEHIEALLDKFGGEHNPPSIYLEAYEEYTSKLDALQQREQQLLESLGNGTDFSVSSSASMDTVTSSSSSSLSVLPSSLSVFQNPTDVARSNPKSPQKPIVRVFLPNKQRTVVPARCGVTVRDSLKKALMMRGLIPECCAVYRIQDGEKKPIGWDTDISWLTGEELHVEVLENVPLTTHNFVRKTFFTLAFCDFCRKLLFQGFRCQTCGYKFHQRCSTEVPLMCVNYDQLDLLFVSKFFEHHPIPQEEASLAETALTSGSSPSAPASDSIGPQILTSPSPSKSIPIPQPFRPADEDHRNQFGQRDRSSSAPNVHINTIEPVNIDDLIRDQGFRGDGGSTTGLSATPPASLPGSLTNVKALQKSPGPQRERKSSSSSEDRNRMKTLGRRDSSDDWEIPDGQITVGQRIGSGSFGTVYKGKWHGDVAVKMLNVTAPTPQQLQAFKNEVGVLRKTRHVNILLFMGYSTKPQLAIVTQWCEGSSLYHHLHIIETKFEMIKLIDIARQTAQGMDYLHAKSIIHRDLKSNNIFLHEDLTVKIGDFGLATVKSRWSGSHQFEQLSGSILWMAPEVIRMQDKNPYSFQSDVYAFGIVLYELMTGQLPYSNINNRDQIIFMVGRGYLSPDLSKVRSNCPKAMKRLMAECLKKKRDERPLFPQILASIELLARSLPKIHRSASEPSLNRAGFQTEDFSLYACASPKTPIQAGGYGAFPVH
# methodDescription: Inhibition of human recombinant B-Raf using […] as substrate incubated for 40 mins in presence of [gamma33P]ATP by scintillation counter based kinase assay
testReadout: pIC50
pIC50 here: minus log base 10 of the concentration, concentration in moles per litre.

Task: Value lookup for pIC50; key = "NC(=O)CCn1cc(-c2ccc3ncnc(Nc4cc(O)c(F)cc4F)c3c2)nn1"
Output: 7.24

---

# assayedSystem: Vascular endothelial growth factor receptor 2 (Homo sapiens)
# methodDescription: Inhibition of VEGF-induced human VEGFR2 autophosphorylation expressed in HUVEC cells measured after 2 hrs by chemiluminescence assay
# Assay type: cell-based
testReadout: IC50 (µM)
A number alone suffices; assume µM.

Task: Value lookup for IC50; key = "COc1cc2ncnc(Sc3nnc(C)s3)c2cc1OC"
Output: 11.9

---

# assayedSystem: Vascular endothelial growth factor receptor 2 (Homo sapiens)
# methodDescription: Inhibition of VEGFR-2 (unknown origin) by Kinase-Glo Max assay
testReadout: pIC50
pIC50 here: minus log base 10 of the concentration, concentration in moles per litre.

Task: Value lookup for pIC50; key = "CNC(=O)c1c(C)oc2cc(Oc3ncnc4cc(OC)c(OC)cc34)ccc12"
Output: 7.46
